// provenance: patent US11999728B2

Test name: Pharmacokinetic Determination (Mouse PK)
Type: in vivo, female CD-1 mice
Test conditions: female, CD-1, PO 10.0 mg/kg, Brain concentration vs plasma concentration at 2 hours post dosing, read-out: B/P ratio

Compound	Kp at 2 h
C[C@@H]1Cc2c([nH]c3ccccc23)[C@@H](c2ccc(NC3CN(CCCF)C3)cc2)N1C12CC(C1)C2	13.5
C[C@@H]1Cc2c([nH]c3ccccc23)[C@@H](c2ccc(O[C@H]3CCN(CCCF)C3)nc2)N1C12CC(C1)C2 (single isomer, unassigned)	7.51
C[C@@H]1Cc2c([nH]c3ccccc23)[C@@H](c2ccc(N[C@@H]3CN(CCCF)C[C@H]3F)cc2)N1C12CC(C1)C2	6.84
C[C@@H]1Cc2c(ccc3[nH]ncc23)[C@@H](c2ccc(NC3CN(CCCF)C3)cn2)N1CC(F)(F)F [AZD9833, reference compound]	0.23
C[C@@H]1Cc2c([nH]c3ccccc23)[C@@H](c2c(F)cc(NC3CN(CCCF)C3)cc2F)N1C12CC(C1)C2	11
C[C@@H]1Cc2c([nH]c3ccccc23)[C@@H](c2c(F)cc(O[C@@H]3CCN(CCCF)C3)cc2F)N1C12CC(C1)C2 (single isomer, unassigned)	7.07
C[C@@H]1Cc2c([nH]c3ccccc23)[C@@H](c2c(F)cc(O[C@H]3CCN(CCCF)C3)cc2F)N1C12CC(C1)C2 (single isomer, unassigned)	4.42
C[C@@H]1Cc2c([nH]c3ccccc23)[C@@H](c2ccc(NC3CN(CCCF)C3)cc2F)N1C12CC(C1)C2	10.8

---

Test system: MCF7
Test name: Breast Cancer Cell Proliferation Assay (MCF-7), Cell Titer-Glo
Assay type: cell-based
Test conditions: Homo sapiens, MCF7, 120 h, MCF7 cells, 5 days of compound exposure
Catalogue of IC50 readings, one per entry.

Molecule	IC50
C[C@@H]1Cc2c([nH]c3ccccc23)[C@@H](c2c(F)cc(O[C@@H]3CCN(CCCF)C3)cc2F)N1C12CC(C1)C2 (single isomer, unassigned) [Compound 5]	25 to 250 nM
CCCN1CC(Oc2ccc([C@H]3c4[nH]c5ccccc5c4C[C@H](C)N3C34CC(CO)(C3)C4)cc2)C1 (single isomer, unassigned) [Compound 53]	25 to 250 nM
C[C@@H]1Cc2c([nH]c3ccccc23)[C@@H](c2cnc(NC3CN(CCCF)C3)nc2)N1C12CC(C1)C2 [Compound 57]	25 to 250 nM
C[C@@H]1Cc2c([nH]c3ccccc23)[C@@H](c2ccc(OC3CN(CCCF)C3)cc2)N1C12CC(C1)C2 [Compound 38]	≤ 25 nM
C[C@@H]1Cc2c([nH]c3ccccc23)[C@@H](c2ccc(OC3CN(CCO)C3)cc2)N1C12CC(C1)C2 [Compound 46]	≥ 250 nM
C[C@H]1Cc2c([nH]c3ccccc23)[C@H](c2ccc(OC3CN(CCCF)C3)cc2)N1C12CC(CO)(C1)C2 (single isomer, unassigned) [Compound 51]	25 to 250 nM
C[C@@H]1Cc2c([nH]c3ccccc23)[C@@H](c2c(F)cc(O[C@H]3CCN(CCCF)C3)cc2F)N1C12CC(C#N)(C1)C2 (single isomer, unassigned) [Compound 36]	≥ 250 nM
C[C@@H]1Cc2c(ccc3[nH]ncc23)[C@@H](c2ccc(NC3CN(CCCF)C3)cn2)N1CC(F)(F)F [AZD9833, reference compound]	≤ 25 nM
CCCN1CC(Oc2ccc([C@@H]3c4[nH]c5ccccc5c4C[C@@H](C)N3C34CC(CO)(C3)C4)cc2)C1 (single isomer, unassigned) [Compound 52]	≤ 25 nM
C[C@@H]1Cc2c([nH]c3ccccc23)[C@@H](c2ccc(O[C@@H]3CCN(CCCF)C3)cn2)N1C12CC(C1)C2 (single isomer, unassigned) [Compound 11]	≥ 250 nM
C[C@@H]1Cc2c([nH]c3ccccc23)[C@@H](c2ncc(NC3CN(CCCF)C3)cc2F)N1C12CC(C1)C2 [Compound 13]	≤ 25 nM
C[C@H]1Cc2c([nH]c3ccccc23)[C@H](c2c(F)cc(O[C@H]3CCN(CCCF)C3)cc2F)N1C12CC(C(N)=O)(C1)C2 (single isomer, unassigned) [Compound 32]	≥ 250 nM
